These entries and their values trace back to patent US20250250357A1.

// reported OD450 per item
Target: T1, human MSLN-FL-his protein (human, UniProt Q13421 296-580)
T1 construct: Self-made in HEK293E cells; also called human MSLN full-length protein; hMSLN-FL-his; not shown: His tag
T1 sequence (Q13421 other isoform, or with tags, fused parts or gaps): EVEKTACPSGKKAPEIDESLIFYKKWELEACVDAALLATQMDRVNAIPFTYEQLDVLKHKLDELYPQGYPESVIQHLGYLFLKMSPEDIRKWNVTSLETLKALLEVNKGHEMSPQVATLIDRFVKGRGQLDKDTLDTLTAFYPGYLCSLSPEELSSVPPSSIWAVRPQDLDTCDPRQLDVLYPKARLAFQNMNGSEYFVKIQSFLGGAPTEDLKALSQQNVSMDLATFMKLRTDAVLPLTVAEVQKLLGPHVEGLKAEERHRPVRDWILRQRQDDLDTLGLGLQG
Assay: ELISA on coated antigen, antibody 1 nM
experimentalEndpoint: OD450

{"columns": ["binder", "result"],
 "data": [
  ["S009-F3.38.10 (antibody, human IgG1, kappa, V domains shown, Human-murine chimeric antibody: murine VH/VL on human IgG1 heavy and kappa light constant regions) VH: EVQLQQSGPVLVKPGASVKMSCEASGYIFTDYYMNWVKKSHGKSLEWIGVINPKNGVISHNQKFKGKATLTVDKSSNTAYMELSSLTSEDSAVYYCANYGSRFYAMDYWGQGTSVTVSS VL: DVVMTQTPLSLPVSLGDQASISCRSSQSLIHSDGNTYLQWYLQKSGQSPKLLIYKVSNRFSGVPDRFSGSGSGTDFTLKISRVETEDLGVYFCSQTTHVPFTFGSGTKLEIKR", "0.07 OD450"],
  ["S009-F3.7.3 (antibody, human IgG1, kappa, V domains shown, Human-murine chimeric antibody: murine VH/VL on human IgG1 heavy and kappa light constant regions) VH: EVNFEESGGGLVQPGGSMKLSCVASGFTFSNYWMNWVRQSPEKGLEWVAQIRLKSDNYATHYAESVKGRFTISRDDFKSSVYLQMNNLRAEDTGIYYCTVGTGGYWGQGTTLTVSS VL: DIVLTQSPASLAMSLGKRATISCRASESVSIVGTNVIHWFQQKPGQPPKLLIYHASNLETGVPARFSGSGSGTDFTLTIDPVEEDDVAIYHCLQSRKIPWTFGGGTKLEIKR", "0.07 OD450"],
  ["S009-F3.74.20 (antibody, human IgG1, kappa, V domains shown, Human-murine chimeric antibody: murine VH/VL on human IgG1 heavy and kappa light constant regions) VH: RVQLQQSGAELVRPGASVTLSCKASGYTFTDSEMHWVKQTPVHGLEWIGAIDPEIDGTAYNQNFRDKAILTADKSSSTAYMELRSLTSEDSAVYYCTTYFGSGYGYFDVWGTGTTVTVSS VL: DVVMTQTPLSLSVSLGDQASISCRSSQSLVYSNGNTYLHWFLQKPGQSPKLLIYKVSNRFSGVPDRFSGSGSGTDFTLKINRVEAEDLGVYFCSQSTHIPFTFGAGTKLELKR", "1.88 OD450"]
]}
